Assay: chemical genetic growth profiling, strain panel (AID 1159580);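 also: tested at 20 µM; growth read once vehicle control cultures reached saturation at 30 °C; lower values mean less growth of the strain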
Settings: S. cerevisiae deletion strains, growth OD, locus YPL031C, strain PHO85, active compounds read low
The campaign covered roughly 5,500 compounds. About 2,000 (36%) were called active. Another 18% or so got no clear call; they are omitted. The list shows a part of the results.
Just a reminder that ties go to Criterion not met: only normalized growth strictly below 0.9 counts as Criterion met.

MOLECULE | DISCRETE LABEL
O=C(Nc1cccc(Cl)c1)O/N=C1\CCCc2occc21 | Criterion met
Cc1onc(-c2c(F)cccc2Cl)c1/C(N)=N\OC(=O)c1ccc(C(C)(C)C)cc1 | Criterion not met
Cc1onc(-c2c(Cl)cccc2Cl)c1C(=O)O/N=C(/N)Cc1ccc(C(C)(C)C)cc1 | Criterion not met
CCOC(=O)c1ccc(Cl)c(N=Cc2cc(Cl)cc(Cl)c2O)c1 | Criterion met
O=C(CSC1=NNC(c2ccccn2)S1)Nc1ccccc1 (stereo unspecified) | Criterion not met

Moving on to the next molecule.
Challenge: API: query returns whether the molecule falls strictly under 0.9 in normalized growth. Query: `Clc1ccc(SCc2ccsc2-c2ncns2)cc1`
Response given: Criterion not met
